targetDesc: Orpinomyces sp. strain PC-2 β-glucosidase BglA, recombinant, secreted from S. cerevisiae, SEQ ID NO:2 (Orpinomyces sp. PC-2, UniProt Q9UUQ3)
Sequence (Q9UUQ3 17-657): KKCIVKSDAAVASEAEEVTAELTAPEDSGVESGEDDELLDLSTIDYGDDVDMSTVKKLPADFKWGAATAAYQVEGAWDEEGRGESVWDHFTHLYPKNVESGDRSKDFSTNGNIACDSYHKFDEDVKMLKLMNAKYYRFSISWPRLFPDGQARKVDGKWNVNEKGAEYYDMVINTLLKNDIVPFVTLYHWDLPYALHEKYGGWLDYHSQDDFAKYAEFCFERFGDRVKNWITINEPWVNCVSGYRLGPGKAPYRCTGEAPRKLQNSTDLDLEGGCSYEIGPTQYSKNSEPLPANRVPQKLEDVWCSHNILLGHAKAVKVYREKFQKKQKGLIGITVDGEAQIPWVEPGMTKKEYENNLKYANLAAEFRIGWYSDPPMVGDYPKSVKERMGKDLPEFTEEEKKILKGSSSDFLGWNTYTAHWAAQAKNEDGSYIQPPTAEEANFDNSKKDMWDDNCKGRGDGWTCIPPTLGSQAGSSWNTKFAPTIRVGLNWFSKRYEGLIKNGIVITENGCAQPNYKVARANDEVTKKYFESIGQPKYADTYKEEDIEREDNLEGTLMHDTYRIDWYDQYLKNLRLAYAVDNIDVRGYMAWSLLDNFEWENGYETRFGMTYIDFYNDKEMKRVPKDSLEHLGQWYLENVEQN
procedureText: Kinetic parameters of purified secreted recombinant BglA (Lineweaver-Burk plots)
Type: biochemical
cond: competitive inhibition; pNPG and cellobiose as substrates; read-out: Ki of glucono-1,5-lactone
experimentalReadout: pKi
Units for pKi: none; it is -log10 of a concentration expressed in mol/L.

Reported pKi for O=C1O[C@H](CO)[C@@H](O)[C@H](O)[C@H]1O [glucono-1,5-lactone, reference compound] : what is it?
4.30
